B1: MEF2-activating motif and SAP domain-containing transcriptional regulator, residues 170 to 204; numbered along this chain, Q6ZN01 (parent)
chain: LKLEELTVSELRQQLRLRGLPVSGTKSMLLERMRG

variants of: B1; experiment: abundance fitness (aPCA) (normalised: wild type 0, dead -1); higher = more abundant; growth selection in yeast, the domain comes from the species named; conditions: Homo sapiens
property: abundance fitness

LKLEETTVSELRQQLRLRGLPVSGTKSMLLERMRG [L6T] = -0.632
LKLEELTVSELRQQTRLRGLPVSGTKSMLLERMRG [L15T] = -0.43
LKLEELTVSELRQQLRLRGLPVSGTKSMLLYRMRG [E31Y] = -0.124
LKLEELTVSELRQQLRLRELPVSGTKSMLLERMRG [G19E] = -0.261
LKLEELTVSELRQQLRLRGLPVSMTKSMLLERMRG [G24M] = -0.768
LKLEELTVSELRQNLRLRGLPVSGTKSMLLERMRG [Q14N] = -0.441
LKLEELTVSELRQQLRLRGLPVSGTWSMLLERMRG [K26W] = -0.361
LKLEELTVSELRQQLRLRGLPVSGTKSMLYERMRG [L30Y] = -0.915
LKLLELTVSELRQQLRLRGLPVSGTKSMLLERMRG [E4L] = -0.919
LKLEELTVSELRQQLRLRGLPVSGTKSMLLERMQG [R34Q] = 0.156
LKLEELTVSELRQQLRLRGAPVSGTKSMLLERMRG [L20A] = -0.296
LKLEELTVSELRQQLRLRALPVSGTKSMLLERMRG [G19A] = -0.746
LKLEELTVSELRQQLRLRGLPVSGTKSMLVERMRG [L30V] = -0.099
LKLEELTVSELCQQLRLRGLPVSGTKSMLLERMRG [R12C] = -0.387
LKLEELTESELRQQLRLRGLPVSGTKSMLLERMRG [V8E] = 0.026
LKLEELTVSELRQQLRLRGLPVSGTRSMLLERMRG [K26R] = 0.048
LKLEELTVSELRQQLGLRGLPVSGTKSMLLERMRG [R16G] = -0.081
LKLEELTVSELRQQLRLRGLPVSGTKSMLLERMRN [G35N] = -0.161
LWLEELTVSELRQQLRLRGLPVSGTKSMLLERMRG [K2W] = -0.159
LKLEELTVCELRQQLRLRGLPVSGTKSMLLERMRG [S9C] = -0.347
LKLYELTVSELRQQLRLRGLPVSGTKSMLLERMRG [E4Y] = -0.804
LKLEELTVSELRQQLRLRGLPVSGTKSMLLEIMRG [R32I] = -0.507
GKLEELTVSELRQQLRLRGLPVSGTKSMLLERMRG [L1G] = -0.364
LKLEELTVSELTQQLRLRGLPVSGTKSMLLERMRG [R12T] = -0.199
LKLEELTVSELRQQLRLRGLPVCGTKSMLLERMRG [S23C] = -0.274
LKLEELTVSELRQQLRMRGLPVSGTKSMLLERMRG [L17M] = -0.087
LKLEELTVSELRQQLRLRGLPVSGTKSMVLERMRG [L29V] = -0.842
LKLEELTVSELRQQLRLRGLPVSGTKSMLTERMRG [L30T] = -0.257
LKLEELTVSELRQQLRLRGLPVSGVKSMLLERMRG [T25V] = -0.435
LKLEELTVSELRQQLRLRGLQVSGTKSMLLERMRG [P21Q] = -0.317
LKLEELTVSEPRQQLRLRGLPVSGTKSMLLERMRG [L11P] = -0.64
LKLEELTVSELRQQLRLRGLPVSGTKSMLSERMRG [L30S] = -0.601
LKLEELTVSELRQQLRLRQLPVSGTKSMLLERMRG [G19Q] = -0.402
LKLEELTVSELRQQLRLLGLPVSGTKSMLLERMRG [R18L] = 0.074
LKLEELTVSELRQQLRLRGLPVSETKSMLLERMRG [G24E] = -0.335
LKLEELTVSEERQQLRLRGLPVSGTKSMLLERMRG [L11E] = -0.864
LKLEELTVSELRQQLRLGGLPVSGTKSMLLERMRG [R18G] = -0.523
LKLEELTVSELRQWLRLRGLPVSGTKSMLLERMRG [Q14W] = -0.141
LKLEELTVSELRQQLRLRGLPVSGTKSMLLQRMRG [E31Q] = -0.227
LKLEERTVSELRQQLRLRGLPVSGTKSMLLERMRG [L6R] = -0.458
LKLEELTVSELRQQPRLRGLPVSGTKSMLLERMRG [L15P] = -0.6
LKLEELTVSELRQQLRLQGLPVSGTKSMLLERMRG [R18Q] = 0.03
LKLEELTVSELRQQLRLPGLPVSGTKSMLLERMRG [R18P] = -0.336
LKLEELTRSELRQQLRLRGLPVSGTKSMLLERMRG [V8R] = -0.309
LKLEELTVSELSQQLRLRGLPVSGTKSMLLERMRG [R12S] = -0.29
LKLEELTVSEMRQQLRLRGLPVSGTKSMLLERMRG [L11M] = -0.331
